Hey, just so you know, these numbers are from PubChem BioAssay (EPA / NIEHS).

Biological target: Ratio of Nucleoli Translocation and Cytoplasm, AR (gene 367) (UniProt P10275)
Sequence (P10275 whole entry, looked up): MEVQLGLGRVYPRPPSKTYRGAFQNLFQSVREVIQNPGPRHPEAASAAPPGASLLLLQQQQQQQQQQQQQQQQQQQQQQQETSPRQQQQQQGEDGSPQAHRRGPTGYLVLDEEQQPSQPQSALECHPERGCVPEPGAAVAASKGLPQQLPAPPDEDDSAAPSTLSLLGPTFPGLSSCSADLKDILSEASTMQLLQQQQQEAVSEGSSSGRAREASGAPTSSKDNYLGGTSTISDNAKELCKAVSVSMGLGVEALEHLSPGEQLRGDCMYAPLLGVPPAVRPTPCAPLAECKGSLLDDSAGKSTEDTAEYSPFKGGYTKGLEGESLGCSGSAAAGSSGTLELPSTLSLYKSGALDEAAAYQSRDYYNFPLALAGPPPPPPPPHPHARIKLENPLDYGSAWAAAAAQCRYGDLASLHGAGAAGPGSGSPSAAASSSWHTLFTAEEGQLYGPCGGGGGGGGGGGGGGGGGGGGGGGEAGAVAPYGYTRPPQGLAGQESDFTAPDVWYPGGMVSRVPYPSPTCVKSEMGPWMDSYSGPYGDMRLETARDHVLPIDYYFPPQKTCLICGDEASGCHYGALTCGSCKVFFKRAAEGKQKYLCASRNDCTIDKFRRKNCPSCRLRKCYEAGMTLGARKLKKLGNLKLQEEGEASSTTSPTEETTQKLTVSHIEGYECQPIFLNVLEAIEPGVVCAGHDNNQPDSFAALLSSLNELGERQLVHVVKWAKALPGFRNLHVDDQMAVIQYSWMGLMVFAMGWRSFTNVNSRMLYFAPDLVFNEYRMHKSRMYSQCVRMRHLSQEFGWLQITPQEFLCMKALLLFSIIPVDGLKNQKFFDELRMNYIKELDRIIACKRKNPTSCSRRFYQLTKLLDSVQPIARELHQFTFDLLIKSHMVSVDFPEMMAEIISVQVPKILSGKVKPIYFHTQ
Test: UPITT_HCI_U2OS_AR_TIF2_Nucleoli_Cytoplasm_Ratio_Agonist: University of Pittsburgh U2OS Androgen Receptor-Transcriptional Intermediary Factor 2 (AR-TIF2) Agonism High Content Imaging Assay for Ratio of Nucleoli Translocation and Cytoplasm (AID 2284000);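 note: hits raise the red nucleolar to cytoplasm ratio above vehicle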
Inconclusive results are not listed. Calls of active or inactive are those of the source. Rule for the calls: active = hit-call score of the fitted dose curve at least 0.9, where 1 is the maximum; inconclusive = response in the unintended direction; inactive = score below 0.9.
Readout label: AC50

Below: 4 molecules and their reported AC50.
| Chemical string | AC50 |
| --- | --- |
| CCOC(=O)C(O)(c1ccc(Cl)cc1)c1ccc(Cl)cc1 | 70.3 µM (active) |
| CC1=C2C[C@H]3[C@@H](CC=C4C[C@@H](O)CC[C@@]43C)[C@@H]2CC[C@]12O[C@@H]1C[C@H](C)CN[C@H]1[C@H]2C | inactive |
| O=C(NC(=O)c1c(F)cccc1F)Nc1cc(Cl)c(OC(F)(F)C(F)F)c(Cl)c1 | inactive |
| Cc1ccccc1CO[C@@H]1C[C@@]2(C(C)C)CC[C@]1(C)O2 | inactive |

Input line: Look up AC50 for this molecule: C=CC(=O)NCNC(=O)C=C
Output line: inactive

Input line: Another molecule to look at: c1cc2ccc3cccc4ccc(c1)c2c34
Output line: inactive
